B1: library; a variant is named by its letters at N, in order (parent)
chain: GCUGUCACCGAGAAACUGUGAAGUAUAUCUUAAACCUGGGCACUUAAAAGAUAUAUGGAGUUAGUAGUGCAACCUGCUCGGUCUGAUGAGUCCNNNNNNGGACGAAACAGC

- Variants of: B1
- experiment.notes: normalized RNA/DNA level without ligand (relative to sTRSVctl = 100) (log10 (% of sTRSVctl)); HEK293T; ligand: cyclic di-GMP (c-di-GMP-II aptamer); higher = less ribozyme self-cleavage, higher mRNA level
- setup.conditions: reporter: mCherry (pCS4076), ligand present: no
Entries and their measured normalized RNA/DNA level without ligand (log10) follow.
reported.metric: normalized RNA/DNA level without ligand (log10)

[[record]]
mutation_id = "GAUCAG"
reported = 1.8

[[record]]
mutation_id = "CGUAUC"
reported = 1.58

[[record]]
mutation_id = "AGUGUA"
reported = 1.51

[[record]]
mutation_id = "AGGGGU"
reported = 1.57

[[record]]
mutation_id = "CUUAUC"
reported = 1.73

